Reported Emax values for a set of compounds
target: BRAF V600E (Homo sapiens, UniProt P15056+Q96SW2, V600E); construct: knock-in of the HiBiT tag to the endogenous BRAF V600E locus; host or cells: A375.10 (A375 clonal line, CRISPR HiBiT knock-in at the endogenous BRAF V600E locus); test: BRAF V600E HiBiT Degradation Assay; format: cell-based; settings: read-out: HiBiT-Degradation A375.10 BRAF 2 hours Emax, A375.10 cells, BRAF V600E, 2 hours; residual protein remaining
Sequence (P15056 whole entry V600E): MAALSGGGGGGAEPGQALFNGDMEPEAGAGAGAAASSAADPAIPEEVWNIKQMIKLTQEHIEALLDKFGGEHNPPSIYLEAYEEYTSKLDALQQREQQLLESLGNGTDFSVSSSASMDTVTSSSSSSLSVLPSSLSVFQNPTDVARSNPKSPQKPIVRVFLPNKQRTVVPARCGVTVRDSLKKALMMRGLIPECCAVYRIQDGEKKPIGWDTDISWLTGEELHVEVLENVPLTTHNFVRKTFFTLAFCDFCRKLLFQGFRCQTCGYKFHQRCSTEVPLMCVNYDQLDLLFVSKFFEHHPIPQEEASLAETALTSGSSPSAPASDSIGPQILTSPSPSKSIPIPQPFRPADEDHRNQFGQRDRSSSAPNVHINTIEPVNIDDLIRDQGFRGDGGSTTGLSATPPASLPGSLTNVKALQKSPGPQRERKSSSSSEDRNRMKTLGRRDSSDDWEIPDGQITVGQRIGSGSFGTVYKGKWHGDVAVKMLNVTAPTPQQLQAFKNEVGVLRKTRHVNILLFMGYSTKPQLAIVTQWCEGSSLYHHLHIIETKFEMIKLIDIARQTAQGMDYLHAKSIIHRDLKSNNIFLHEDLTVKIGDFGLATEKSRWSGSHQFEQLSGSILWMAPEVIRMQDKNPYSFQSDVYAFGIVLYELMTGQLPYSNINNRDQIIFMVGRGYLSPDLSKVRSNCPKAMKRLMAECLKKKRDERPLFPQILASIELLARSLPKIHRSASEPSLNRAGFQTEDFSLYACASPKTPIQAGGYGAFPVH
Sequence (Q96SW2 whole entry): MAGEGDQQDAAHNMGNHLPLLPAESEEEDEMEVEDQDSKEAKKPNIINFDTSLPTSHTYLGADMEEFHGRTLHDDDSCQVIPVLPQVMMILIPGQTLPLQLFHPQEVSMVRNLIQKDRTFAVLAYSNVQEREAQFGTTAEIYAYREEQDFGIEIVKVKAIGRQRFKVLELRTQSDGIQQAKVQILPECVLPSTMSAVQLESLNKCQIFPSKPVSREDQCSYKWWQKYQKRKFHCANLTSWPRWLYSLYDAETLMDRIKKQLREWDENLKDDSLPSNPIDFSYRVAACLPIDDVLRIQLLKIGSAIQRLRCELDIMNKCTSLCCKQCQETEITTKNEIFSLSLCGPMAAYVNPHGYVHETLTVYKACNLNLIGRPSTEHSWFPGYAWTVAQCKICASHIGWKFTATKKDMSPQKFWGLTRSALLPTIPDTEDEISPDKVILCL
Sequence (Q16531 whole entry partner): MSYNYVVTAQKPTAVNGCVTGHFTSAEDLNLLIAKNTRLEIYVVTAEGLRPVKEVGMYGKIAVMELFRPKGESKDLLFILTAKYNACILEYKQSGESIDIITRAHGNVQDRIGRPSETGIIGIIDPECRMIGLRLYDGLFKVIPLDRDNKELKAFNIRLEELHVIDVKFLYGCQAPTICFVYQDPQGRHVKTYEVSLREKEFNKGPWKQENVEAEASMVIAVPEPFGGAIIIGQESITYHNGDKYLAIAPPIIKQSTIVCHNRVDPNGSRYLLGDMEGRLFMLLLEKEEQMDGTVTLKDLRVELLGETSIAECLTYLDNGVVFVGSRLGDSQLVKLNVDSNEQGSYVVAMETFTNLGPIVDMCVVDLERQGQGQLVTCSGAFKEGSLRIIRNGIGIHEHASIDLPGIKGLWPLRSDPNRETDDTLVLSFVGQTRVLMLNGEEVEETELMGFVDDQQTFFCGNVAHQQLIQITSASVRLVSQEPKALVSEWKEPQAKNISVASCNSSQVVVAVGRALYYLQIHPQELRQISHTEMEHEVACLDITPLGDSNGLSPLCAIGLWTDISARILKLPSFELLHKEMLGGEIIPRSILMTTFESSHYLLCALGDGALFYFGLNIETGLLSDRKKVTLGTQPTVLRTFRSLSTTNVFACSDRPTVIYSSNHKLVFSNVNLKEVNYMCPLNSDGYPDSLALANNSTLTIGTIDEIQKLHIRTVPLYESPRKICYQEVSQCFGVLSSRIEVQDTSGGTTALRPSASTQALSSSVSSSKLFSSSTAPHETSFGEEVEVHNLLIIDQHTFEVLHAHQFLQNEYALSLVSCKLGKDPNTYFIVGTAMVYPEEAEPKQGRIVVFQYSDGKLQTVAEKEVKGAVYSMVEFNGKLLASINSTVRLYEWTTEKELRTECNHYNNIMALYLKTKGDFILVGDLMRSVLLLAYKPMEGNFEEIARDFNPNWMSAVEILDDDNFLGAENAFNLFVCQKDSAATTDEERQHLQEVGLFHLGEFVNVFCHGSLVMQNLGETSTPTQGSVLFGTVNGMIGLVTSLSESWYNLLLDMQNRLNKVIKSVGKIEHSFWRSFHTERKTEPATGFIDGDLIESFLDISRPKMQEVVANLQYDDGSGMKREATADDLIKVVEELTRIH

Cn1nc(N2CCC(=O)NC2=O)c2cc(F)c(N3CC4(CC(N5CCC6(CC5)CC(n5cnc7ccc(Oc8c(F)ccc(NS(=O)(=O)N9C[C@H]%10C[C@H]%10C9)c8C#N)cc7c5=O)C6)C4)C3)cc21 (some centres unmarked)	< 50%

Pending compound:
Item CO[C@@H]1CCN(S(=O)(=O)Nc2ccc(F)c(Oc3ccc4ncn(C5CC6(CCN(C7CC8(C7)CN(c7cc9c(cc7F)c(N7CCC(=O)NC7=O)nn9C)C8)CC6)C5)c(=O)c4c3)c2C#N)C1 (some centres unmarked) has what recorded Emax?
< 50%
